Tested on: AMPA receptor
Assay: In vitro kainate antagonistic activity: retinal spreading depression on isolated chicken retina
Assay type: cell-based
Settings: isolated chicken retina preparations; spreading depression developed with 5 microM of kainate; at least 3 concentrations
Listing of entries alongside the reported IC50.
reported metric: IC50 (µM)

{"molecule": "CC1=NN=C(c2ccc(N)cc2)c2cc3c(cc2C1)OCO3 [A, reference compound]", "measurement target": "AMPA receptor", "reported metric": "IC50", "reported": 9.5}
{"molecule": "CNC(=O)N1N=C(c2ccc(N)cc2)c2ccc(Cl)cc2CC1C (stereo not shown)", "measurement target": "AMPA receptor", "reported metric": "IC50", "reported": 3.6}
{"molecule": "CC(=O)N1N=C(c2ccc(N)cc2)c2ccc(Cl)cc2CC1C (stereo not shown)", "measurement target": "AMPA receptor", "reported metric": "IC50", "reported": 3.2}
{"molecule": "CC(=O)N1N=C(c2ccc(N)cc2)c2cc(Cl)ccc2CC1C (stereo not shown)", "measurement target": "AMPA receptor", "reported metric": "IC50", "reported": 8.2}
{"molecule": "CC(=O)N1N=C(c2ccc(N)cc2)c2cc(Cl)c(Cl)cc2CC1C (stereo not shown)", "measurement target": "AMPA receptor", "reported metric": "IC50", "reported": 2.5}
{"molecule": "CNC(=O)N1N=C(c2ccc(N)cc2)c2cc(Cl)ccc2CC1C (stereo not shown)", "measurement target": "AMPA receptor", "reported metric": "IC50", "reported": 4.6}
{"molecule": "CNC(=O)N1N=C(c2ccc(N)cc2)c2cc(Cl)c(Cl)cc2CC1C (stereo not shown)", "measurement target": "AMPA receptor", "reported metric": "IC50", "reported": 1.2}

Where these numbers come from: patent US5807851A
